- Test system: PXR homodimer (NR concentration 270 nM)
- assay info: PBM binding z-score (relative to random genomic background probes); higher = stronger binding; sequences stand for … in GC…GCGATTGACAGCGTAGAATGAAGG
Quick rule for you: PBM binding z-score at 0.7 or higher means Criterion met, lower means Criterion not met.

>>> cat("TTACCATGGTGAAAGGTCGTTGATGCACGCCTTG")
"Criterion not met"
>>> cat("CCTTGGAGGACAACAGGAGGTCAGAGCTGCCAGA")
"Criterion not met"
>>> cat("GCTTGCAGGCCATTTGGGTCACTCAATGACGGGC")
"Criterion not met"
>>> cat("CCTCGGAGGACAGAAGCTCAGAGCTGTCCGCTTT")
"Criterion not met"
>>> cat("GCTAGCAGGCCATTTGGGGCACTCAATGACGGGC")
"Criterion not met"
>>> cat("AGACAAAGTTCATCTAGGTAACGTAAGATATGCT")
"Criterion met"
>>> cat("GTACCAAGGTGAATAGATCGTTGATGAGTAGGCG")
"Criterion not met"
>>> cat("CTTGAAAGGTCGGTTGAGGTGAGTATACGGATAA")
"Criterion not met"
>>> cat("TCTTGCAGATCAACAGGAGGTTAAGAAAGATCGA")
"Criterion not met"
>>> cat("CAAACTCGGTCACCGGAAGGTCAAAGTCCGCATG")
"Criterion met"
>>> cat("CCTCGGAGGACAGGAGGTCAGAGCTGTCCGCTTT")
"Criterion not met"
>>> cat("GCTATTAGTTGAAAGGGCGACCGAATGATTCTCG")
"Criterion not met"
>>> cat("CGTACTGGGCCAAGGTCATTGATCAGTCAAAGCA")
"Criterion met"
>>> cat("AGTCAAAGTTCAGGATGAGGTAACGTAAAGCACG")
"Criterion met"
>>> cat("ATCTCTAGGTAGCCAAGTTCAGTGAATGCCGAAC")
"Criterion met"
>>> cat("TCTTGTAGATCAATCAGGTTAAGAAAGCCTGAGT")
"Criterion not met"

----------
Entries and their PBM binding z-score values follow.
- System: RARg homodimer (NR concentration 270 nM)
- assay info: PBM binding z-score (relative to random genomic background probes); higher = stronger binding; sequences stand for … in GC…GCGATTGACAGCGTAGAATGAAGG
readout label: PBM binding z-score

>>> observed_result("TCAGACAGGTGAAGGTAAATCAGGTACGCAGTCG")
0.667
>>> observed_result("TAATATAGGTAAATGCTAGGTGAAAGTCCGATCT")
0.601
>>> observed_result("CGAACTAGGTCACGGACAGTGAATCTCCGCACGC")
5.73
>>> observed_result("ATATGTATGTTAGCTGGGGTCATTCAGACTAGGC")
2.31
>>> observed_result("CCTAGCAGGCCAATCTTGGTCACTCAAGGCTTGA")
0.118
>>> observed_result("CCAGACAGATGAAAGGTAACTCAGTCTGGTACGC")
0.272
>>> observed_result("AGAATGAGGTTACCAATGATCAGGGAAACGCTTG")
1.63
>>> observed_result("TCGAGTAGGTTACCAATGGGGCATTCAGCTTTCT")
0.445
>>> observed_result("GTTAGTTGGTCAGTAAAAGGTCACACACCGGTCG")
5.37
>>> observed_result("TCATATAGGTAAATGCTGGGTGAAAGTCCGATCT")
0.16
>>> observed_result("TCATATAGGTAAATGCTAGGTGCAAGTCCGATCT")
0.13
